Origin of measurements: ChEMBL document CHEMBL1152756

system: HCT-116; test: Cell cycle arrest in human HCT116 cells assessed as accumulation at S phase at IC50 after 24 hrs irradiated with tungsten-halogen white light for 2 hrs followed by incubation in drug free medium for 24 hrs by flow cytometry; format: functional
Here, each record is paired with measured Activity data.
measuredQuantity: Activity

C1=Cc2nc1cc1ccc([nH]1)c(-c1ccccc1)c1nc(cc3ccc([nH]3)c2-c2ccccc2)C=C1 ... 17.89%
Oc1cccc(-c2c3nc(c(-c4cccc(O)c4)c4ccc([nH]4)c(-c4cccc(O)c4)c4nc(c(-c5cccc(O)c5)c5ccc2[nH]5)CC4)C=C3)c1 [TEMOPORFIN] ... 21.29%
Oc1cccc(-c2c3nc(cc4ccc([nH]4)c(-c4ccccc4)c4nc(cc5ccc2[nH]5)C=C4)C=C3)c1 ... 21.28%
COc1cccc(-c2c3nc(cc4ccc([nH]4)c(-c4ccccc4)c4nc(cc5ccc2[nH]5)C=C4)C=C3)c1 ... 17.93%
